FYI, the data here is from ChEMBL document CHEMBL2163309.

Species on record: Bos taurus
Assay: Inhibition of bovine brain tubulin polymerization at 5 uM measured for every 1 min for 20 mins by spectrophotometer analysis
inhibition values for the compounds below.

Consider the worked cases shown below.
- smiles_text: "COc1cc(C(=O)c2cnc(-c3c[nH]c4ccccc34)[nH]2)cc(OC)c1OC"
  inhibition: "70%"
- smiles_text: "COc1cc(C(=O)c2c[nH]c(-c3cn(S(=O)(=O)c4ccccc4)c4ccccc34)n2)cc(OC)c1OC"
  inhibition: "67%"
- smiles_text: "COc1cc(C(=O)c2cn(C)c(-c3cn(C)c4ccccc34)n2)cc(OC)c1OC"
  inhibition: "65%"

Continue with the next compound.
stdin: Identify inhibition associated with the compound COc1cc(C(=O)c2c[nH]c(-c3coc4ccccc34)n2)cc(OC)c1OC
stdout: 30%
